# Test system: cancer cells
# experimentalProtocol: MTT cytotoxic assay of esterification products (Cytotoxicity activity)
# Format: cell-based, human
# conditionInfo: E4A esterified with 2-propenoyl chloride (Ppe = Propenoyl), compounds isolated with HPLC
parameterMeasured: Cytotoxicity activity

Completed entries (count: 5):
INSERT INTO assay_data (compound, targetentity, parametermeasured, measuredresult) VALUES
  ('CC1(C)CC2C3=CCC4C5(C)CCC(O)C(C)(COC(=O)c6ccccc6)C5CCC4(C)C3(C)CC(O)C2(CO)C(OC(=O)c2ccccc2)C1OC(=O)c1ccccc1 (centres unmarked)', 'cancer cells', 'Cytotoxicity activity', 'moderate'),
  ('CC1(C)CC2C3=CCC4C5(C)CCC(O)C(C)(CO)C5CCC4(C)C3(C)CC(OC(=O)c3ccccc3)C2(CO)C(OC(=O)c2ccccc2)C1OC(=O)c1ccccc1 (centres unmarked)', 'cancer cells', 'Cytotoxicity activity', 'moderate'),
  ('CC1(C)CC2C3=CCC4C5(C)CCC(O)C(C)(CO)C5CCC4(C)C3(C)CC(OC(=O)c3ccccc3)C2(COC(=O)c2ccccc2)C(O)C1O (centres unmarked)', 'cancer cells', 'Cytotoxicity activity', 'moderate'),
  ('CC1(C)CC2C3=CCC4C5(C)CCC(O)C(C)(COC(=O)c6ccccc6)C5CCC4(C)C3(C)CC(OC(=O)c3ccccc3)C2(COC(=O)c2ccccc2)C(OC(=O)c2ccccc2)C1O (centres unmarked)', 'cancer cells', 'Cytotoxicity activity', 'weak'),
  ('CC1(C)CC2C3=CCC4C5(C)CCC(O)C(C)(COC(=O)c6ccccc6)C5CCC4(C)C3(C)CC(OC(=O)c3ccccc3)C2(COC(=O)c2ccccc2)C(O)C1OC(=O)c1ccccc1 (centres unmarked)', 'cancer cells', 'Cytotoxicity activity', 'weak');

Please state Cytotoxicity activity for every compound in the list that follows.
1. CC1(C)CC2C3=CCC4C5(C)CCC(OC(=O)c6ccccc6)C(C)(COC(=O)c6ccccc6)C5CCC4(C)C3(C)CC(OC(=O)c3ccccc3)C2(COC(=O)c2ccccc2)C(O)C1OC(=O)c1ccccc1 (centres unmarked)
2. CC1(C)CC2C3=CCC4C5(C)CCC(O)C(C)(COC(=O)c6ccccc6)C5CCC4(C)C3(C)CC(O)C2(CO)C(O)C1OC(=O)c1ccccc1 (centres unmarked)

weak
moderate

* * *

# Test system: cancer cells
# experimentalProtocol: MTT cytotoxic assay of esterification products (Cytotoxicity activity)
# Assay type: cell-based, human
# conditionInfo: esterification products of core compound E4A with Decanoyl chloride (Dec = Decanoyl)
parameterMeasured: Cytotoxicity activity

Example entries begin here.
INSERT INTO assay_data (molecule, measuredresult) VALUES
  ('CC1(C)CC2C3=CCC4C5(C)CCC(O)C(C)(COC(=O)c6ccccc6)C5CCC4(C)C3(C)CC(OC(=O)c3ccccc3)C2(CO)C(O)C1O (stereo not drawn) [Compound K32]', 'moderate'),
  ('CC1(C)CC2C3=CCC4C5(C)CCC(O)C(C)(COC(=O)c6ccccc6)C5CCC4(C)C3(C)CC(O)C2(CO)C(OC(=O)c2ccccc2)C1O (stereo not drawn) [Compound K30]', 'moderate'),
  ('CC1(C)CC2C3=CCC4C5(C)CCC(OC(=O)c6ccccc6)C(C)(COC(=O)c6ccccc6)C5CCC4(C)C3(C)CC(OC(=O)c3ccccc3)C2(COC(=O)c2ccccc2)C(O)C1OC(=O)c1ccccc1 (stereo not drawn) [Compound K17]', 'weak'),
  ('CC1(C)CC2C3=CCC4C5(C)CCC(O)C(C)(COC(=O)c6ccccc6)C5CCC4(C)C3(C)CC(O)C2(CO)C(OC(=O)c2ccccc2)C1OC(=O)c1ccccc1 (stereo not drawn) [Compound K21]', 'moderate'),
  ('CC1(C)CC2C3=CCC4C5(C)CCC(OC(=O)c6ccccc6)C(C)(COC(=O)c6ccccc6)C5CCC4(C)C3(C)CC(O)C2(CO)C(O)C1O (stereo not drawn) [Compound K31]', 'moderate'),
  ('CC1(C)CC2C3=CCC4C5(C)CCC(O)C(C)(CO)C5CCC4(C)C3(C)CC(O)C2(COC(=O)c2ccccc2)C(OC(=O)c2ccccc2)C1OC(=O)c1ccccc1 (stereo not drawn) [Compound K20]', 'moderate'),
  ('CC1(C)CC2C3=CCC4C5(C)CCC(O)C(C)(CO)C5CCC4(C)C3(C)CC(OC(=O)c3ccccc3)C2(COC(=O)c2ccccc2)C(O)C1O (stereo not drawn) [Compound K28]', 'moderate'),
  ('CC1(C)CC2C3=CCC4C5(C)CCC(O)C(C)(CO)C5CCC4(C)C3(C)CC(OC(=O)c3ccccc3)C2(CO)C(OC(=O)c2ccccc2)C1OC(=O)c1ccccc1 (stereo not drawn) [Compound K22]', 'moderate'),
  ('CC1(C)CC2C3=CCC4C5(C)CCC(O)C(C)(CO)C5CCC4(C)C3(C)CC(O)C2(CO)C(OC(=O)c2ccccc2)C1OC(=O)c1ccccc1 (stereo not drawn) [Compound K24]', 'moderate'),
  ('CC1(C)CC2C3=CCC4C5(C)CCC(OC(=O)c6ccccc6)C(C)(COC(=O)c6ccccc6)C5CCC4(C)C3(C)CC(OC(=O)c3ccccc3)C2(COC(=O)c2ccccc2)C(OC(=O)c2ccccc2)C1O (stereo not drawn) [Compound K18]', 'weak');

Quick request: Cytotoxicity activity for each listed item, please.
1. CC1(C)CC2C3=CCC4C5(C)CCC(OC(=O)c6ccccc6)C(C)(CO)C5CCC4(C)C3(C)CC(O)C2(CO)C(OC(=O)c2ccccc2)C1OC(=O)c1ccccc1 (stereo not drawn) [Compound K23]
2. CC1(C)CC2C3=CCC4C5(C)CCC(O)C(C)(CO)C5CCC4(C)C3(C)CC(O)C2(COC(=O)c2ccccc2)C(O)C1OC(=O)c1ccccc1 (stereo not drawn) [Compound K25]
3. CC1(C)CC2C3=CCC4C5(C)CCC(O)C(C)(COC(=O)c6ccccc6)C5CCC4(C)C3(C)CC(O)C2(CO)C(O)C1OC(=O)c1ccccc1 (stereo not drawn) [Compound K29]
4. CC1(C)CC2C3=CCC4C5(C)CCC(O)C(C)(CO)C5CCC4(C)C3(C)CC(O)C2(COC(=O)c2ccccc2)C(OC(=O)c2ccccc2)C1O (stereo not drawn) [Compound K26]
5. CC1(C)CC2C3=CCC4C5(C)CCC(O)C(C)(COC(=O)c6ccccc6)C5CCC4(C)C3(C)CC(OC(=O)c3ccccc3)C2(COC(=O)c2ccccc2)C(OC(=O)c2ccccc2)C1OC(=O)c1ccccc1 (stereo not drawn) [Compound K16]
6. CC1(C)CC2C3=CCC4C5(C)CCC(OC(=O)c6ccccc6)C(C)(COC(=O)c6ccccc6)C5CCC4(C)C3(C)CC(O)C2(COC(=O)c2ccccc2)C(OC(=O)c2ccccc2)C1O (stereo not drawn) [Compound K14]
7. CC1(C)CC2C3=CCC4C5(C)CCC(O)C(C)(COC(=O)c6ccccc6)C5CCC4(C)C3(C)CC(OC(=O)c3ccccc3)C2(COC(=O)c2ccccc2)C(OC(=O)c2ccccc2)C1O (stereo not drawn) [Compound K12]

moderate
moderate
moderate
moderate
weak
weak
weak

For every listed record, write down its Cytotoxicity activity.
1. CC1(C)CC2C3=CCC4C5(C)CCC(O)C(C)(COC(=O)c6ccccc6)C5CCC4(C)C3(C)CC(OC(=O)c3ccccc3)C2(COC(=O)c2ccccc2)C(O)C1OC(=O)c1ccccc1 (stereo not drawn) [Compound K13]
2. CC1(C)CC2C3=CCC4C5(C)CCC(OC(=O)c6ccccc6)C(C)(CO)C5CCC4(C)C3(C)CC(O)C2(COC(=O)c2ccccc2)C(O)C1O (stereo not drawn) [Compound K27]
3. CC1(C)CC2C3=CCC4C5(C)CCC(OC(=O)c6ccccc6)C(C)(COC(=O)c6ccccc6)C5CCC4(C)C3(C)CC(OC(=O)c3ccccc3)C2(COC(=O)c2ccccc2)C(OC(=O)c2ccccc2)C1OC(=O)c1ccccc1 (stereo not drawn) [Compound K19]
4. CC1(C)CC2C3=CCC4C5(C)CCC(OC(=O)c6ccccc6)C(C)(COC(=O)c6ccccc6)C5CCC4(C)C3(C)CC(O)C2(COC(=O)c2ccccc2)C(OC(=O)c2ccccc2)C1OC(=O)c1ccccc1 (stereo not drawn) [Compound K15]

1. weak
2. moderate
3. none
4. weak

* * *

# System: cancer cells
# experimentalProtocol: MTT cytotoxic assay of esterification products (Cytotoxicity activity)
# Format: cell-based, human
# conditionInfo: esterification products isolated with HPLC; graded strong / moderate / weak
parameterMeasured: Cytotoxicity activity

Solved cases below.
INSERT INTO measurements (compound, measuredresult) VALUES
  ('C=CCCC(=O)OC1C(O)C2(COC(=O)C(C)=CC)C(O)CC3(C)C(=CCC4C5(C)CCC(O)C(C)(COC(=O)C(C)=CC)C5CCC43C)C2CC1(C)C (centres unmarked)', 'moderate'),
  ('CC=C(C)C(=O)OCC1(C)C(O)CCC2(C)C1CCC1(C)C2CC=C2C3CC(C)(C)C(O)C(OC(=O)CCCCC)C3(CO)C(O)CC21C (centres unmarked)', 'moderate'),
  ('C=CCCC(=O)OCC12C(O)CC3(C)C(=CCC4C5(C)CCC(O)C(C)(COC(=O)C(C)=CC)C5CCC43C)C1CC(C)(C)C(O)C2OC(=O)CCC=C (centres unmarked)', 'moderate'),
  ('CC=C(C)C(=O)OCC1(C)C(O)CCC2(C)C1CCC1(C)C2CC=C2C3CC(C)(C)C(O)C(OC(=O)C(CC)CC)C3(COC(=O)C(CC)CC)C(O)CC21C (centres unmarked)', 'moderate'),
  ('CC=C(C)C(=O)OCC1(C)C(O)CCC2(C)C1CCC1(C)C2CC=C2C3CC(C)(C)C(OC(=O)C=Cc4ccccc4)C(O)C3(COC(=O)C=Cc3ccccc3)C(O)CC21C (centres unmarked)', 'moderate');

Your task in this section: give Cytotoxicity activity for each listed record.
1. CC=C(C)C(=O)OCC1(C)C(O)CCC2(C)C1CCC1(C)C2CC=C2C3CC(C)(C)C(OC(=O)C(C)=CC)C(O)C3(CO)C(O)CC21C (centres unmarked)
2. C=CCCC(=O)OCC12C(O)CC3(C)C(=CCC4C5(C)CCC(O)C(C)(COC(=O)C(C)=CC)C5CCC43C)C1CC(C)(C)C(OC(=O)CCC=C)C2O (centres unmarked)
3. CC=C(C)C(=O)OCC1(C)C(O)CCC2(C)C1CCC1(C)C2CC=C2C3CC(C)(C)C(O)C(O)C3(COC(=O)C(C)=CC)C(O)CC21C (centres unmarked)
4. CC=C(C)C(=O)OCC1(C)C(O)CCC2(C)C1CCC1(C)C2CC=C2C3CC(C)(C)C(O)C(O)C3(COC(=O)C=Cc3ccccc3)C(O)CC21C (centres unmarked)

moderate
moderate
strong
strong

Give Cytotoxicity activity for each listed item.
1. CC=C(C)C(=O)OCC1(C)C(OC(C)=O)CCC2(C)C1CCC1(C)C2CC=C2C3CC(C)(C)C(O)C(O)C3(COC(=O)C(C)=CC)C(O)CC21C (centres unmarked)
2. CC=C(C)C(=O)OCC1(C)C(OC(=O)C=C(C)C)CCC2(C)C1CCC1(C)C2CC=C2C3CC(C)(C)C(O)C(OC(=O)C=C(C)C)C3(COC(=O)C(C)=CC)C(O)CC21C (centres unmarked)

1. moderate
2. weak
